FYI, the data here is from the supplement of paper PMC10567573.

B1: ZNF263 (parent)
chain: HLTRHQRTHTGEKPYKCTLCGENF

variants of: B1; test: protein stability index of a GFP-peptide fusion (GPS, HEK-293T) (PSI 1-6); higher = more stable; conditions: c terminus: a fixed tail appended;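 further: lentivirally expressed fusions sorted by FACS into six bins by GFP to DsRed ratio, PSI derived from sequencing read proportions per bin multiplied by bin number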
value.type: protein stability index

>>> print(df.to_string())
    change               value_type  measured_number
 0    F24S  protein stability index             4.49
 1     L2I  protein stability index             2.59
 2    T10Q  protein stability index             3.44
 3     R4M  protein stability index             2.83
 4    E12G  protein stability index             2.23
 5    E12F  protein stability index             2.47
 6    Y15L  protein stability index             2.81
 7     H9V  protein stability index             2.65
 8    N23I  protein stability index             2.57
 9     T8I  protein stability index              3.1
10     R4E  protein stability index              3.7
11    L19Y  protein stability index             2.39
12     T3F  protein stability index              2.3
13     R7Y  protein stability index              2.9
14    N23T  protein stability index             2.83
15    N23Q  protein stability index             2.63
16     L2A  protein stability index             3.06
17    N23M  protein stability index              2.3
18     H5F  protein stability index             2.47
19     Q6E  protein stability index             2.71
20    E12Y  protein stability index             2.84
21    N23Y  protein stability index             2.53
22    T10Y  protein stability index             2.58
23    C20H  protein stability index             2.66
24    C20K  protein stability index             3.12
